# credit: PubChem BioAssay (NCI)

Listed here: items and their measured GI50.
- System: SK-MEL-28 melanoma
- assayExplanation: NCI tumour cell line growth inhibition, 48 h

[
  {
    "compound": "CN1CCC(=C(c2ccc(Cl)cc2)c2ccccn2)CC1",
    "experimentalSystem": "SK-MEL-28 melanoma",
    "propertyMeasured": "GI50",
    "result": "86100 nM"
  }
]

Request: State the recorded GI50 for this entry: COc1cc(C2C=C(C)N=C3SC=C(C)N32)cc(OC)c1OC (centres undefined)
Response: 507 nM

Request: Quick check: GI50 of N#Cc1c(-c2ccccc2)nc(SCC(O)CN2CCOCC2)nc1N1CCOCC1 (centres undefined) ?
Response: 11200 nM

Request: Which GI50 reading was recorded for the compound CCCCCCCCCCCCCCCC(=O)OCC1OC(OCCCC)[C@H](O[C@@H]2OC(C)C(OC(=O)CCC)C(O)C2O)C(O)C1O (some centres undefined) ?
Response: 16500 nM

Request: // lookup GI50 for CCOC(=O)C(Cc1ccccc1)n1c(O)c(/C=N/c2ncc(Cc3ccc(Cl)cc3Cl)s2)sc1=S (centres undefined)
Response: 2610 nM

Request: I am curious: what GI50 value has been reported for Cc1cc2c3c(nc4ccccc42)C(=O)c2cccnc2-c3n1 ?
Response: 976 nM

###

- Test system: LXFL 529 NSCLC
- assayExplanation: NCI tumour cell line growth inhibition, 48 h
propertyMeasured: TGI

Worked examples, 2 compounds total:
[
  {
    "compound": "CCN(CC)CC(C(C)=O)C(c1ccccc1)c1c(O)c2ccccc2oc1=O (stereo not drawn)",
    "TGI": "> 100 µM"
  },
  {
    "compound": "Cc1cc(NS(=O)(=O)c2ccc(NC(=O)c3cccc4c(Nc5ccc(S(=O)(=O)Nc6cc(C)on6)cc5)c5ccc(Cl)cc5nc34)cc2)no1",
    "TGI": "> 100 µM"
  }
]

Now for the compound whose TGI we want.
Request: Please give the measured TGI for this compound: COc1c(CC(C)=O)c2ccccc2n1C(C)=O
Response: > 100 µM

###

- Tested on: HCT-15 colon
- assayExplanation: NCI tumour cell line growth inhibition, 48 h; in the data active = GI50 below about 0.43 µM; inactive = the rest
Thanks in advance; please answer with one of these: t = active, f = inactive

Completed entries (count: 4):
[
  {
    "testSmiles": "CCN1C[C@@H](C)n2c(c(O)c3c(=O)n(Cc4ccc(F)c(Cl)c4)nc(C(=O)NC)c32)C1=O",
    "cat": "f"
  },
  {
    "testSmiles": "N#C/C(=C\\c1ccc(O)c(O)c1)C(=O)NCc1cccc(C(F)(F)F)c1",
    "cat": "f"
  },
  {
    "testSmiles": "c1ccc(C2=Nc3ccccc3N3CNN=C23)cc1",
    "cat": "f"
  },
  {
    "testSmiles": "Cc1ccc(/C=C(/C#N)n2nnc3cccc(F)c32)cc1",
    "cat": "t"
  }
]

Proceed to the following item.
Request: Outcome? O=C(O)C1CC[N-]CC1.O=C(O)C1CC[N-]CC1.[NH2-].[NH2-].[Pt+4]
Response: f

###

- Tested on: SF-539 CNS
- assayExplanation: NCI tumour cell line growth inhibition, 48 h; in the data active = GI50 below about 0.43 µM; inactive = the rest
Your reply should match one of these outcome classes. active, inactive

Look over these answered cases.
[
  {
    "compound": "N=C1C(c2nc3ccccc3c(=O)[nH]2)=C(O)CN1c1cccc(Cl)c1",
    "cat": "inactive"
  },
  {
    "compound": "Fc1ccc(C2CC(c3cccc(Nc4ccncc4)c3)=NN2c2ccccc2)cc1 (stereo not given)",
    "cat": "inactive"
  },
  {
    "compound": "Cc1c(Br)c(Br)c2c3c1nc(N1CCNCC1)n3CCC2",
    "cat": "inactive"
  },
  {
    "compound": "COc1cc(C2C=C(C)N=C3SC=C(C)N32)cc(OC)c1OC (stereo not given)",
    "cat": "active"
  },
  {
    "compound": "COc1cc2c3c(n(CCCNCCCCN)c(=O)c2cc1OC)-c1cc2c(cc1C3=O)OCO2",
    "cat": "active"
  },
  {
    "compound": "Cn1ccc(S(=O)(=O)N2CCC[C@H](Nc3nccc(-c4c(-c5cccc(O)c5)nc5occn45)n3)C2)n1",
    "cat": "inactive"
  }
]

Here is the next item to consider.
Request: // return assay outcome for COc1ccc(/C=C/C(=O)C(=O)/C=C/c2ccc(OC)c(OC)c2)cc1OC
Response: inactive
